Exercise: state measured log10(Ki) for each of the compounds provided.
Molecular target: mouse TAAR1 (Mus musculus, UniProt Q923Y8)
Construct: expressed in transfected cells; membrane preparation
Sequence (Q923Y8 whole entry): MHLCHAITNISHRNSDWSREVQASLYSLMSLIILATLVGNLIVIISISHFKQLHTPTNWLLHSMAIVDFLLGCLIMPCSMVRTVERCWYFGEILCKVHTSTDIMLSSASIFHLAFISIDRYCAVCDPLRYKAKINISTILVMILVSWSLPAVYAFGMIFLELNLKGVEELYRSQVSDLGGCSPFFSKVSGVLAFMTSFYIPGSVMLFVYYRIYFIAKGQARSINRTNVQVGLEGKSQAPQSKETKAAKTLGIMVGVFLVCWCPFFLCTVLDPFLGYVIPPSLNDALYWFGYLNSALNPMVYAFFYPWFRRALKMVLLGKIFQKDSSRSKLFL
Experiment: Radioligand binding assay on mouse TAAR1
Settings: mouse TAAR1, HEK-293 membranes, first value of cell mouse/rat
Counter-ions that a name gives are not always drawn.
Give log10 of Ki, with Ki taken in µM.

Task: Give the measured log10(Ki) of O=C(Nc1ccc([C@H]2CNCCO2)c(F)c1)c1cnc(C2CC2)cn1 [Example 18, hydrochloride] .
Result: -2.44

Task: Give the measured log10(Ki) of COc1cncc(C(=O)Nc2ccc([C@@H]3CNCCO3)c(F)c2)n1 [Example 7, hydrochloride] .
Result: -0.83

Task: Give the measured log10(Ki) of COc1cncc(C(=O)Nc2ccc([C@H]3CNCCO3)c(F)c2)n1 [Example 9, hydrochloride] .
Result: -1.50

Task: Give the measured log10(Ki) of COc1cnc(C(=O)Nc2ccc([C@@H]3CNCCO3)c(F)c2)cn1 [Example 8, hydrochloride] .
Result: -1.97

Task: Give the measured log10(Ki) of O=C(Nc1ccc([C@H]2CNCCO2)c(F)c1)c1cncc(OCC(F)(F)F)n1 [Example 26] .
Result: -1.78

Task: Give the measured log10(Ki) of N#Cc1cc(NC(=O)c2cnc(C(F)(F)F)cn2)ccc1[C@H]1CNCCO1 [Example 3, hydrochloride] .
Result: -1.69

Task: Give the measured log10(Ki) of O=C(Nc1ccc([C@@H]2CNCCO2)c(F)c1)c1cncc(C(F)(F)F)n1 [Example 6, hydrochloride] .
Result: -1.48

Task: Give the measured log10(Ki) of O=C(Nc1ccc([C@@H]2CNCCO2)cc1F)c1cncc(OCC(F)(F)F)n1 [Example 29] .
Result: -1.35

Task: Give the measured log10(Ki) of CCOc1cnc(C(=O)Nc2ccc([C@H]3CNCCO3)c(F)c2)cn1 [Example 13, hydrochloride] .
Result: -2.39

Task: Give the measured log10(Ki) of O=C(Nc1ccc([C@@H]2CNCCO2)cc1F)c1cnc(OCC(F)(F)F)cn1 [Example 27] .
Result: -2.23

Task: Give the measured log10(Ki) of O=C(Nc1ccc([C@@H]2CNCCO2)c(F)c1)c1cnc(C(F)(F)F)cn1 [Example 1, hydrochloride] .
Result: -1.94

Task: Give the measured log10(Ki) of O=C(Nc1ccc([C@@H]2CNCCO2)c(F)c1)c1cnc(C2CC2)cn1 [Example 17, hydrochloride] .
Result: -2.14

Task: Give the measured log10(Ki) of O=C(Nc1ccc([C@H]2CNCCO2)c(F)c1)c1cnc(OCC2CCC2)cn1 [Example 11, hydrochloride] .
Result: -2.34

Task: Give the measured log10(Ki) of O=C(Nc1ccc([C@H]2CNCCO2)c(F)c1)c1cnc(N2CC(F)(F)C2)cn1 [Example 16, hydrochloride] .
Result: -1.71
